// data source = PubChem BioAssay AID1903

Biological target: Large T antigen (Simian virus 40)
Experiment: SV40 large T antigen inhibitors, biochemical (AID 1903)
Conditions: SV40 large T antigen ATPase/helicase inhibition assay; at 20 µM; active compounds read high
The campaign covered roughly 310,000 compounds. About 1,200 (0.39%) were called active. A selection follows. Entries with a potency or affinity are not part of this list.
Would you mind telling me the reported inhibition of each entry?
Give bare numbers, in %.

O=C1C(=O)N(Cc2cccnc2)C(c2ccc(Br)cc2)/C1=C(\O)c1ccc2c(c1)OCCO2 (stereo not drawn): 8.89
N#CC1=C2SCN(Cc3ccco3)CN2C(=O)CC1c1ccccc1F (stereo not drawn): 21.6
O=C(c1cc(-c2ccccc2Cl)nc2ccccc12)N1CCC1: 8.29
Cc1nc2nc(C)c(CCC(=O)O)c(C)n2n1: 8.37
Cc1ccc(S(=O)(=O)N2CCN(CC(=O)N/N=C\c3ccc(Cl)c([N+](=O)[O-])c3)CC2)cc1: 19.6

For each of the molecules below, state inhibition.
1. Cc1ccccc1S(=O)(=O)Cc1ccc(C(=O)NC2CC2)o1
2. CC(=O)n1cc([C@H]2C=C(C(=O)N3CCN(Cc4ccc5c(c4)OCO5)CC3)O[C@@H](OCCCCO)C2)c2ccccc21
3. Brc1ccccc1-n1nnc(-c2cccnc2)n1

1. 11.4
2. 21.8
3. 12.4

For each of the molecules below, state inhibition.
1. Cc1ccccc1-c1nnn(CC(=O)N2CCN(C(=O)c3ccco3)CC2)n1
2. CCOC(=O)c1c(N)sc(N)c1C(=O)OCC
3. CN(CC(=O)Nc1ccc(N2CCOCC2)cc1)CC(=O)Nc1ccc(N2CCOCC2)cc1
4. CCOC(=O)c1c(C)[nH]sc1=S

[14.3, 36.6, 21.6, 15]

---

Would you mind telling me the reported inhibition of each entry?
Target: Large T antigen (Simian virus 40) (UniProt P03070)
Sequence (P03070 whole entry, looked up): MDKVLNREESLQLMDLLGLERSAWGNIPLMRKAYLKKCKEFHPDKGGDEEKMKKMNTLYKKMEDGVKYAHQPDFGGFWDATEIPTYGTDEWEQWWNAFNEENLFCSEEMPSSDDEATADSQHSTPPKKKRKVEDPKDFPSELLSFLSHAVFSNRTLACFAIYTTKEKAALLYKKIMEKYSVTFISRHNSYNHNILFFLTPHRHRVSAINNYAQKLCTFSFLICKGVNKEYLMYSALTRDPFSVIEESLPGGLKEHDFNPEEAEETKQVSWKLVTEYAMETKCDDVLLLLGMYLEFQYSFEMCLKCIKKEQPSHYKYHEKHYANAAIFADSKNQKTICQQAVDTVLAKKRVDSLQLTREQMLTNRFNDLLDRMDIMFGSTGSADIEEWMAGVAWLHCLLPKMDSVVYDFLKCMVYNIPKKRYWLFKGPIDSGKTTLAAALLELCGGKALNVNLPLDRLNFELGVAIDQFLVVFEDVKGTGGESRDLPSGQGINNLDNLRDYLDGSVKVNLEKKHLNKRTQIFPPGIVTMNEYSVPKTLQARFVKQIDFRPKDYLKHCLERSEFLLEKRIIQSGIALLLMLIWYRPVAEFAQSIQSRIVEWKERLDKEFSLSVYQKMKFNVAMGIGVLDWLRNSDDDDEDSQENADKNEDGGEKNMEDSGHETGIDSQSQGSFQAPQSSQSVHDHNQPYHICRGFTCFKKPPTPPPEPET
Assay: SV40 large T antigen inhibitors, biochemical (AID 1903)
Conditions: SV40 large T antigen ATPase/helicase inhibition assay; at 20 µM; active compounds read high
The campaign covered roughly 310,000 compounds. About 1,200 (0.39%) were called active. Only a sample is shown. Potency and affinity values are given separately.
One number for each entry, in %.

Some solved cases for reference:
CCN(CC1CCCO1)C(=O)CCc1nnc(CCc2ccc(OC)cc2)o1 (stereo not drawn): 0.66
Cc1onc(-c2ccccc2)c1C(=O)Nc1ccc(S(=O)(=O)N2CCCC2)cc1: 4.98
Cc1ccc(S(=O)(=O)N2CCN(S(=O)(=O)c3ccc4c(c3)OCCO4)CC2)cc1: 2.43
Cc1ccc2c(c1)C1C=CCC1C(C(=O)NCCCN1CCOCC1)N2 (stereo not drawn): 12.6
CCOC(=O)C1(C)C=C(Nc2ccc(NC(C)=O)cc2)C(=O)N1c1ccc(NC(C)=O)cc1 (stereo not drawn): 6.98
CN(C)c1ccc(CNCC2CCCO2)cc1 (stereo not drawn): 7.34
CCCCN(C(=N)N1CCCCC1)c1nc(C)c([N+](=O)[O-])c(=O)[nH]1: 9.69
CCOC(=O)C1(C)C=C(Nc2ccc(C)cc2)C(=O)N1c1ccc(C)cc1 (stereo not drawn): 12.1

For each of the compounds below, state inhibition.
1. O=C(O)C1Nc2c(Cl)cc(Cl)c(Cl)c2C2C=CCC12 (stereo not drawn)
2. O=c1cc(CN2CCN(c3ccccc3)CC2)nc2scc(-c3ccccc3)n12
3. O=C(CCN1C(=O)/C(=C/C=C/c2ccccc2)SC1=S)Nc1nc2ccccc2s1
4. O=C(O)CCCC(=O)N(Cc1ccccc1)Cc1ccccc1
5. O=C(NC1CC1)C1Nc2ccc(OC(F)(F)F)cc2C2C=CCC12 (stereo not drawn)
6. CCOC(=O)C1CCN(Cc2cc(=O)n3c(-c4ccccc4)csc3n2)CC1
7. CCOC(=O)C1Nc2ccc(OC(F)(F)F)cc2C2C=CCC12 (stereo not drawn)

31
3.32
9.79
8.76
6.67
2.57
19.1

For each of the compounds below, state inhibition.
1. Cc1cc(C)c2c(c1)NC(c1cc3c(cc1Br)OCO3)C1CC=CC21 (stereo not drawn)
2. COc1ccc(N(CC(=O)O)S(=O)(=O)c2cccnc2)cc1
3. O=C1CNC(=S)N1CCCc1ccccc1

[9.15, 9.79, 5.18]

For each of the compounds below, state inhibition.
1. O=C1CC(c2ccc(O)c(O)c2)Oc2cc(O)cc(O)c21 (stereo not drawn)
2. CCCNC(=O)C(=O)Nc1ccc(N(C)C)cc1
3. Cc1ccc(NC(=O)c2ccc3nsnc3c2)c(C)c1

1: 45.5; 2: 18.4; 3: 3.08

For each of the compounds below, state inhibition.
1. CCOC(=O)C1Nc2ccc(C(=O)O)cc2C2C=CCC12 (stereo not drawn)
2. COc1cc(OC)cc(C2C(C#N)=C(N)Oc3n[nH]c(-c4cccnc4)c32)c1 (stereo not drawn)

1: 16.5; 2: 16.8

---

Biological target: Large T antigen (Simian virus 40) (UniProt P03070)
Experiment: SV40 large T antigen inhibitors, biochemical (AID 1903)
Details: SV40 large T antigen ATPase/helicase inhibition assay; at 20 µM; active compounds read high
Out of some 310,000 compounds screened, about 1,200 (0.39%) were called active. The list is a sample of the results. Potency and affinity values are given separately.
Outcome: criterion met for inhibition of at least 10%; criterion not met for anything lower.

Here's what some known entries look like.
CC(C)(CC(=O)O)CC(=O)Nc1ccc2c(c1)ncn2CCc1ccccc1: criterion not met
O=C(NC(=S)Nc1ccccc1[N+](=O)[O-])c1cncc(Br)c1: criterion not met

Confirm if inhibition reported for the molecule O=C(CCSc1ccc(Cl)cc1)N1CCN(c2ncccn2)CC1 is 10% or above. criterion not met

Confirm if inhibition reported for the molecule CN(C)c1ccc(/C=N/NC(=O)Cn2nnc3ccccc32)cc1 is 10% or above. criterion met

Confirm if inhibition reported for the molecule COc1ccc(/C=N/NC(=O)CSc2ccccn2)cc1OC is 10% or above. criterion met

Confirm if inhibition reported for the molecule CCCOc1ccc(/C=N/NC(=O)CSc2ccccn2)cc1OC is 10% or above. criterion not met

Confirm if inhibition reported for the molecule COc1ccc(/C=N/NC(=O)CCn2nnc3ccccc32)cc1 is 10% or above. criterion not met

Confirm if inhibition reported for the molecule COc1cc(/C=N/NC(=O)CSc2ccccn2)ccc1OC(C)C is 10% or above. criterion met

Confirm if inhibition reported for the molecule Cc1ccccc1N1CC(=O)N(c2ccccc2C)CC1=O is 10% or above. criterion not met

Confirm if inhibition reported for the molecule CCc1ccccc1NC(=O)CNC(=O)CCc1nc2sc3c(c2c(=O)[nH]1)CCCC3 is 10% or above. criterion met

Confirm if inhibition reported for the molecule Cc1noc(C)c1C(=O)Nc1c(F)cc(F)cc1Br is 10% or above. criterion not met

Confirm if inhibition reported for the molecule CC(=O)N1CCN(CC(=O)O)CC1 is 10% or above. criterion not met

Confirm if inhibition reported for the molecule COc1ccc(S(=O)(=O)N2CCOC2CNC(=O)C(=O)NCCc2ccccc2)cc1C (centres undefined) is 10% or above. criterion not met

Confirm if inhibition reported for the molecule COc1ccccc1N1CCN(/N=C/c2cccc(O)c2)CC1 is 10% or above. criterion not met

Confirm if inhibition reported for the molecule COc1cc(Cn2nnc3ccccc32)cc(Br)c1O is 10% or above. criterion met

Confirm if inhibition reported for the molecule O=C1CCCN1CCCNc1ncccc1[N+](=O)[O-] is 10% or above. criterion not met

Confirm if inhibition reported for the molecule CN(c1ccc(C(=O)Nc2ccc3c(c2)OCO3)cc1)S(C)(=O)=O is 10% or above. criterion met

Confirm if inhibition reported for the molecule CCn1cc(CN2CCC(C(=O)Nc3ccc(Oc4ccccc4F)cc3)CC2)c(C)n1 is 10% or above. criterion met

---

Would you mind telling me the reported inhibition of each entry?
Target: Large T antigen (Simian virus 40) (UniProt P03070)
Experiment: SV40 large T antigen inhibitors, biochemical (AID 1903)
Details: SV40 large T antigen ATPase/helicase inhibition assay; at 20 µM; active compounds read high
In all, about 310,000 compounds went through this assay and about 1,200 (0.39%) were called active. The list is a sample of the results. Entries with a potency or affinity are not part of this list.
One number for each entry, in %.

CC(=O)c1ccc(OC(=O)C(CCS(C)(=O)=O)N2C(=O)c3ccccc3C2=O)cc1 (stereo unspecified): 3.15
O=C(CCc1ccccc1)NNC(=O)c1ccccc1F: 10.9
CCOC(=O)c1nn(-c2ccc(Cl)cc2)c2nc(Nc3ccccc3)cc(=O)n12: 5.22
CCN(C(=O)CN1CCN(c2ccc(OC)cc2)CC1)c1c(N)n(Cc2ccccc2)c(=O)[nH]c1=O: 21.5
CC1=C(C(=O)NCc2ccccc2)C(c2cccnc2)n2ncnc2N1 (stereo unspecified): 0.75

For each of the compounds below, state inhibition.
1. Cc1onc(C(=O)NCc2cccs2)c1[N+](=O)[O-]
2. Nc1[nH]nc2nc3ccccc3cc12
3. CCc1ccc2nc3nc(C)cc(C)c3c(N)c2c1
4. Cc1cc(C)n2nc(C(=O)N/N=C/c3ccc(Cl)cc3)nc2n1
5. C(=N\N1CCN(c2ccccc2)CC1)/c1ccccc1

-0.94
36
17.6
6.6
8.2

For each of the compounds below, state inhibition.
1. CCN1CCN(c2ccc(NC(=O)c3cccc(OCc4ccccc4)c3)cc2)CC1
2. O=C(NCCC1CCCCN1S(=O)(=O)c1ccccc1)C(=O)NCc1ccncc1 (stereo unspecified)

1. 8.98
2. 4.13

For each of the compounds below, state inhibition.
1. COc1cc(/C=N/NC(=O)c2cc3ccccc3[nH]2)ccc1O
2. CC(C)(C)c1cc(C(=O)N/N=C/c2ccccc2O)n(-c2ccccc2)n1
3. CCOc1ccc(N2C(N)=NC(N)=NC2(C)C)cc1
4. COc1cccc(N2C(=O)/C(=C\c3cccs3)NC2=S)c1
5. COC(=O)/C=C/c1ccc2c(c1)OCO2
6. CN(C)c1ccc(NC(=O)CN2C(=O)CC(c3ccccc3)=Nc3ccccc32)cc1
7. O=c1c2ccccc2sn1-c1ccc(S(=O)(=O)N2CCCC2)cc1
8. O=[N+]([O-])c1cccc(/C=N/N2CCN(Cc3ccccc3)CC2)c1

1. 27.5
2. 19.8
3. 2.99
4. 24
5. -5.42
6. 47
7. 9.42
8. 16.1
